- measured-on: cAMP-dependent protein kinase (catalytic subunit) (Homo sapiens, UniProt P17612)
- experiment-notes: cAMP-dependent protein kinase (A kinase) test, 32P-phosphate incorporation into histone
reported-endpoint: IC50 (µM)

>  <smiles-record>
O=C1NC(=O)c2c1c1c3ccccc3n3c1c1c2c2ccccc2n1C1CCC3O1

>  <readout-units>
µM

>  <reported-result>
5.5

$$$$
